// reported inhibition for each item listed
Target: Nuclear receptor coactivator 2 (Homo sapiens) (UniProt Q15596)
Sequence (Q15596 whole entry, looked up, the tested form may be a part): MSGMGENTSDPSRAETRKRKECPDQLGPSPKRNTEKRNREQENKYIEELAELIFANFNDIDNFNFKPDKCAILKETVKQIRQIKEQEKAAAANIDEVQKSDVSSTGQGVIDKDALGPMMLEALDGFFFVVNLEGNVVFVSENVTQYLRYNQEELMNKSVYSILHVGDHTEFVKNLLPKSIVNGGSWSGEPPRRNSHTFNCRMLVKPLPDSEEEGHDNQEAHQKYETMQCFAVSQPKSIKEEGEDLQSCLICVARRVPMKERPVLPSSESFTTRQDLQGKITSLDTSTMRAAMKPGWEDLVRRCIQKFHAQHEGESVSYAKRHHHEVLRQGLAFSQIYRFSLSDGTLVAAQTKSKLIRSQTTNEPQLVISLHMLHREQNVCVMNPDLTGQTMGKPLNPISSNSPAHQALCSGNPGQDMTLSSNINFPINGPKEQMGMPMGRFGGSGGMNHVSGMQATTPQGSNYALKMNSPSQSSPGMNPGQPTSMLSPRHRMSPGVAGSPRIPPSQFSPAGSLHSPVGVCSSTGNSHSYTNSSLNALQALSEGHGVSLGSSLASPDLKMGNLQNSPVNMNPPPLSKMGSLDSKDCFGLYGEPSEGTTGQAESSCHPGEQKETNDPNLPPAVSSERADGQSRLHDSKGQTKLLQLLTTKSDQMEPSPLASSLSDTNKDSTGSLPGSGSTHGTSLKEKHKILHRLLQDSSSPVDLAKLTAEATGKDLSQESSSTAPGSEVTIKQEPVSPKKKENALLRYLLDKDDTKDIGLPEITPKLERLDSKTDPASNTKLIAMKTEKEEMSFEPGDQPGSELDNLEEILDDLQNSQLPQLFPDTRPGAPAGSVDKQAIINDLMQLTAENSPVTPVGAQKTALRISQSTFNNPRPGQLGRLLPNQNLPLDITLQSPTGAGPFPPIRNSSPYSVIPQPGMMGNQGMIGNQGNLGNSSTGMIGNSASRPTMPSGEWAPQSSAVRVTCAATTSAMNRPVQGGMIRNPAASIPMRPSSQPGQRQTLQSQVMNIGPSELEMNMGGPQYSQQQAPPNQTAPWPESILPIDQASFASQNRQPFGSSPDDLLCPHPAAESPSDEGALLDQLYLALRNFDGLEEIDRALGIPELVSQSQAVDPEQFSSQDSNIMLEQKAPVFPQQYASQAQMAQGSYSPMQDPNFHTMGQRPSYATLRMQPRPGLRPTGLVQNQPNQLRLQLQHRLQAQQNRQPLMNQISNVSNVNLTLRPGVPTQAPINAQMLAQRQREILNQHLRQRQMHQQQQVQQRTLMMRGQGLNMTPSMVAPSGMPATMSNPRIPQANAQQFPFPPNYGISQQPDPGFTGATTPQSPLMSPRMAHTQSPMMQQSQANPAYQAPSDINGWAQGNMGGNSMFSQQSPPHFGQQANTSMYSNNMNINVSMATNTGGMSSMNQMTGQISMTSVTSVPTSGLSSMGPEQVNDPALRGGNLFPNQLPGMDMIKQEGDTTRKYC
Assay: inhibition of GAL4-SRC2 driven luciferase reporter, primary screen, SRC2 inhibitor project, cell-based, luminescence (AID 651957);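 further: 0% = DMSO treated cells and 100% = cells given Gossypol at 36 µM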
Details: HEK293 GAL4-SRC2 luciferase reporter, at 9 µM, active compounds read high
The campaign covered roughly 370,000 compounds. About 620 (0.17%) were called active. Many of the other results were omitted from the sample, so actives are more common in it than they were.

Compound structure	Assayed target	inhibition (%)
CCOc1ccc(S(=O)(=O)NCCCn2ccnc2)cc1NC(C)=O	Nuclear receptor coactivator 2 (Homo sapiens) (UniProt Q15596)	12.2
O=C(CCS(=O)(=O)c1ccccc1)Nc1ccc(Cl)c(Cl)c1	Nuclear receptor coactivator 2 (Homo sapiens) (UniProt Q15596)	-2.79
CN(CCC(=O)Nc1cc(S(=O)(=O)N(C)C)ccc1Cl)CC(=O)Nc1ccc(F)cc1	Nuclear receptor coactivator 2 (Homo sapiens) (UniProt Q15596)	-17.9
Cc1ccc(CS(=O)(=O)c2ncc(Cl)c(C(=O)Nc3nnc(C)s3)n2)cc1	Nuclear receptor coactivator 2 (Homo sapiens) (UniProt Q15596)	64
Cc1cccc(CS(=O)(=O)c2ncc(Cl)c(C(=O)Nc3ccc(F)cc3)n2)c1	Nuclear receptor coactivator 2 (Homo sapiens) (UniProt Q15596)	62.1
Cc1cccc(NC(=O)c2nc(S(=O)(=O)Cc3ccccc3)ncc2Cl)c1	Nuclear receptor coactivator 2 (Homo sapiens) (UniProt Q15596)	64.1
Cc1nnc(NC(=O)CSc2nccn2-c2cccc(C)c2C)s1	Nuclear receptor coactivator 2 (Homo sapiens) (UniProt Q15596)	-5.88
O=C(NC1Cc2ccccc2C1)c1cc(COc2cccc(C(F)(F)F)c2)on1	Nuclear receptor coactivator 2 (Homo sapiens) (UniProt Q15596)	11.1
Cc1ccc(CS(=O)(=O)CCC(=O)NC2CC2)cc1	Nuclear receptor coactivator 2 (Homo sapiens) (UniProt Q15596)	-50
Cc1sc2nc(SCC(=O)c3ccc(O)c(O)c3)n(Cc3ccco3)c(=O)c2c1C	Nuclear receptor coactivator 2 (Homo sapiens) (UniProt Q15596)	8.73

* * *

Recorded inhibition by entry
Molecular target: Nuclear receptor coactivator 2 (Homo sapiens) (UniProt Q15596)
Test: inhibition of GAL4-SRC2 driven luciferase reporter, primary screen, SRC2 inhibitor project, cell-based, luminescence (AID 651957);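 further: 0% = DMSO treated cells and 100% = cells given Gossypol at 36 µM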
Details: HEK293 GAL4-SRC2 luciferase reporter, at 9 µM, active compounds read high
Screen size: about 370,000 compounds; about 620 (0.17%) were called active. For the sample, actives were picked, then their nearest neighbours and some compounds at random.
Recorded endpoint: inhibition (%)

Molecule	Unit descriptor	Readout number
CCCCn1c(N)c(N(CC)C(=O)c2ccc(N(C)S(=O)(=O)c3ccc(C)cc3)cc2)c(=O)[nH]c1=O	%	-16.6
CS(=O)(=O)N1CCN=C1SCc1ccc(F)cc1	%	-10.1
CC1(C)CC2CC(C)(CN2c2ncnc3ccc(Br)cc23)C1 (centres undefined)	%	17.4
CCOC(=O)CNc1nc(Cl)nc(Nc2ccc(OC)cc2OC)n1	%	-23.9
COc1ccc(Nc2ncnc3ccc(Br)cc23)c(OC)c1	%	86.6
O=S1(=O)c2ccc(Br)cc2OC[C@@H](Cc2ccccc2)N1Cc1cn(Cc2ccco2)nn1	%	-13.6
COCCCNC(=O)C[C@H]1C[C@@]2(C(=O)OC)C(=C[C@H](C(C)(C)C)O[C@@H]2C)N(Cc2ccc(Cl)cc2Cl)C1=O	%	16.8
COC[C@@H]1CCCN1c1ccc2c(c1)O[C@H](C)CCN(C1CC1)S2(=O)=O	%	14.3
COC(=O)C1=C(C)N(Cc2cccc(C(F)(F)F)c2)C(=NCc2ccccc2)NC1c1ccc(Cl)cc1 (centres undefined)	%	-0.5
O=C(Nc1ccccc1Cl)/C(Cl)=C(\Cl)S(=O)c1ccccc1 (centres undefined)	%	85.5
O=C(CN1CCN(c2ccc(O)cc2)CC1)NC1CCCc2ccccc21 (centres undefined)	%	0.42
CCOC(=O)[C@@]12CN(C(=O)OC(C)(C)C)CC=C1N(Cc1ccc(OC)cc1)C(=O)[C@H]2CC(=O)NCc1ccc(OC)c(OC)c1	%	-4.35
COC(=O)[C@]12C[C@H](CC(=O)NCc3ccccc3)C(=O)N(CCC3=CCCCC3)C1=C[C@H](C(C)(C)C)O[C@@H]2C	%	28.1
O=C1C=C(c2ccccc2)CCC1	%	-5.31

* * *

Molecular target: Nuclear receptor coactivator 2 (Homo sapiens)
Assay: inhibition of GAL4-SRC2 driven luciferase reporter, primary screen, SRC2 inhibitor project, cell-based, luminescence (AID 651957);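 further: 0% = DMSO treated cells and 100% = cells given Gossypol at 36 µM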
Details: HEK293 GAL4-SRC2 luciferase reporter, at 9 µM, active compounds read high
In all, about 370,000 compounds went through this assay and about 620 (0.17%) were called active. The full list was thinned out, with actives kept by preference.

Molecule	Assayed target	inhibition
CC(=O)Nc1ccc(S(=O)(=O)N2CCCC2C(=O)O)cc1 (stereo unspecified)	Nuclear receptor coactivator 2 (Homo sapiens)	10.5% (inactive)
C=CCN=C1NC(c2cccc(C(F)(F)F)c2)C(C(=O)OC)=C(C)N1C (stereo unspecified)	Nuclear receptor coactivator 2 (Homo sapiens)	-11.9% (inactive)
CCCC(CCC(=O)OC)(C(=O)OCC)c1csc(N)n1 (stereo unspecified)	Nuclear receptor coactivator 2 (Homo sapiens)	11% (inactive)
CC(=O)Nc1ccc(S(=O)(=O)Nc2ccc(N3CCCCC3)cc2)cc1	Nuclear receptor coactivator 2 (Homo sapiens)	63.2% (active)
COc1cccc(CN2CCN(Cc3ccc4cccc(F)c4n3)CC2CCO)c1 (stereo unspecified)	Nuclear receptor coactivator 2 (Homo sapiens)	-4.49% (inactive)
N#C/C(=C/c1ccc(Cl)cc1)NC(=O)c1ccccc1	Nuclear receptor coactivator 2 (Homo sapiens)	-29% (inactive)
CCOC(=O)CN(C(=O)COc1nc(C)cc(C)c1C#N)c1ccc(Cl)cc1	Nuclear receptor coactivator 2 (Homo sapiens)	-18% (inactive)
CCOc1cc(/C=C(/C#N)c2ccc(Cl)cc2)cc(Cl)c1OCC(=O)O	Nuclear receptor coactivator 2 (Homo sapiens)	56.9% (active)
Nc1[nH]c(/C=C2/CCCCC2n2[nH]c(=O)n(-c3ccccc3)c2=O)c(Cc2ccccc2)[n+]1Cc1ccccc1 (stereo unspecified)	Nuclear receptor coactivator 2 (Homo sapiens)	12.9% (inactive)
CC1(C)CC(=O)c2sc(N)nc2C1	Nuclear receptor coactivator 2 (Homo sapiens)	3.79% (inactive)
O=C(Nc1ccc(N2CCCCC2)cc1)c1cc(S(=O)(=O)N2CCOCC2)ccc1F	Nuclear receptor coactivator 2 (Homo sapiens)	10.1% (inactive)

* * *

Biological target: Nuclear receptor coactivator 2 (Homo sapiens)
Assay: inhibition of GAL4-SRC2 driven luciferase reporter, primary screen, SRC2 inhibitor project, cell-based, luminescence (AID 651957);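 further: 0% = DMSO treated cells and 100% = cells given Gossypol at 36 µM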
Settings: HEK293 GAL4-SRC2 luciferase reporter, at 9 µM, active compounds read high
About 620 (0.17%) of roughly 370,000 compounds were called active. Shown is part of a subset that was picked to be rich in actives.

Compound	Assayed target	inhibition (%)
O=C(NCc1ccc2c(c1)OCO2)c1cc2c(s1)CS(=O)(=O)C2	Nuclear receptor coactivator 2 (Homo sapiens)	13.1
CC(C)CC(CCc1ccccc1)OS(N)(=O)=O (stereo unspecified)	Nuclear receptor coactivator 2 (Homo sapiens)	-15.3
C=CCN1[C@@H](Cc2ccccc2)COc2cccc(N3CCSCC3)c2S1(=O)=O	Nuclear receptor coactivator 2 (Homo sapiens)	10.1
CCOC(=O)C1C(=O)C=C(c2ccc(OC)cc2)CC1c1ccco1 (stereo unspecified)	Nuclear receptor coactivator 2 (Homo sapiens)	-4.74
CC1CCC2(CC1)NC(=O)N(CC(=O)NCc1ccco1)C2=O (stereo unspecified)	Nuclear receptor coactivator 2 (Homo sapiens)	-29.4
CCOC(=O)C1=C(c2ccc(OC)cc2)C(=O)c2ccccc2C1=O	Nuclear receptor coactivator 2 (Homo sapiens)	73.8
CCOC(=O)C1=C(CC)Nc2ccccc2N=C1N	Nuclear receptor coactivator 2 (Homo sapiens)	12.5
Cc1sc2ncn(CC(=O)NCCCC(=O)NCc3ccc(F)cc3)c(=O)c2c1C	Nuclear receptor coactivator 2 (Homo sapiens)	-10.8
COc1ccccc1CNC(=O)C1CCN(S(=O)(=O)c2ccc3c(c2)OCCO3)CC1	Nuclear receptor coactivator 2 (Homo sapiens)	-1.43
CC1CCC(N2CC(=O)N(Cc3ccc4c(c3)OCO4)C(c3ccc(F)cc3)C2=O)CC1 (stereo unspecified)	Nuclear receptor coactivator 2 (Homo sapiens)	3.66
O=C1N=C2SCCN2/C1=C\c1c(Cl)cccc1Cl	Nuclear receptor coactivator 2 (Homo sapiens)	4.12

* * *

This section presents compounds with their documented inhibition values.
Target: Nuclear receptor coactivator 2 (Homo sapiens) (UniProt Q15596)
Experiment: inhibition of GAL4-SRC2 driven luciferase reporter, primary screen, SRC2 inhibitor project, cell-based, luminescence (AID 651957);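 further: 0% = DMSO treated cells and 100% = cells given Gossypol at 36 µM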
Settings: HEK293 GAL4-SRC2 luciferase reporter, at 9 µM, active compounds read high
The whole screen tested about 370,000 compounds, of which about 620 (0.17%) were called active. This is one part of a sample in which actives are shown more often than they occur.
Recorded endpoint: inhibition

Compound	Assayed target	Recorded endpoint	Result
Cc1ccc2oc(=O)c3cnn(CC(=O)N(Cc4ccco4)C4CCCCC4)c3c2c1	Nuclear receptor coactivator 2 (Homo sapiens) (UniProt Q15596)	inhibition	-25.6% (inactive)
CCOC(=O)[C@]12CCCC=C1N(Cc1ccc(OC)cc1)C(=O)[C@@H]2CC(=O)NCc1cccs1	Nuclear receptor coactivator 2 (Homo sapiens) (UniProt Q15596)	inhibition	7.23% (inactive)
Cc1nc(=O)c(-c2ccccc2)c(C)n1-c1ccc(Br)cc1	Nuclear receptor coactivator 2 (Homo sapiens) (UniProt Q15596)	inhibition	-29.2% (inactive)
N#CCC[C@H]1CC[C@]2(CCCN(Cc3ccc(Cl)cc3)C2)O1	Nuclear receptor coactivator 2 (Homo sapiens) (UniProt Q15596)	inhibition	7.54% (inactive)
Clc1ccc(Cl)c(Oc2ccc(Oc3nc(Cl)ccc3Cl)cc2)n1	Nuclear receptor coactivator 2 (Homo sapiens) (UniProt Q15596)	inhibition	-10% (inactive)
Cc1noc(C)c1NC(=O)Nc1ccc2c(c1)C(=O)N([C@H](C)CO)C[C@H](C)[C@H](CN(C)Cc1ccncc1)OCCCC[C@@H](C)O2	Nuclear receptor coactivator 2 (Homo sapiens) (UniProt Q15596)	inhibition	5.48% (inactive)
COc1cccc(NC(=O)C2(C)CCN2Cc2ccccc2Cl)c1 (stereo not given)	Nuclear receptor coactivator 2 (Homo sapiens) (UniProt Q15596)	inhibition	-0.04% (inactive)
Cc1cc(N2CCN(C(=O)OC(C)(C)C)C[C@H]2C)ccc1N1CCN(Cc2ccccc2)[C@H](C)C1	Nuclear receptor coactivator 2 (Homo sapiens) (UniProt Q15596)	inhibition	-2.83% (inactive)
CCOc1ccc(NC(=O)COC(=O)C2CCC(=O)N2)c([N+](=O)[O-])c1 (stereo not given)	Nuclear receptor coactivator 2 (Homo sapiens) (UniProt Q15596)	inhibition	-12.2% (inactive)
CCC(c1ccc(NC(=O)OC(C)(C)C)cc1)c1cc(OC)cc(OC)c1 (stereo not given)	Nuclear receptor coactivator 2 (Homo sapiens) (UniProt Q15596)	inhibition	11.3% (inactive)
Cc1ccc2nc(-c3ccc(Br)cc3)cn2c1	Nuclear receptor coactivator 2 (Homo sapiens) (UniProt Q15596)	inhibition	60.3% (active)
COc1ccc(CCOC2OC(CO)C(OC(=O)/C=C/c3ccc(O)c(OC)c3)C(O[C@H]3O[C@@H](C)[C@H](O)[C@@H](O)[C@H]3O)C2O)cc1O (stereo not given in full)	Nuclear receptor coactivator 2 (Homo sapiens) (UniProt Q15596)	inhibition	-2.46% (inactive)
Cc1ccc(-n2c(SCC(=O)Nc3ccc(S(=O)(=O)Nc4nccs4)cc3)nnc2-c2ccccn2)cc1	Nuclear receptor coactivator 2 (Homo sapiens) (UniProt Q15596)	inhibition	9.13% (inactive)
C=CCn1c(C)cc(C2=NNC(=NCC)SC2)c1C	Nuclear receptor coactivator 2 (Homo sapiens) (UniProt Q15596)	inhibition	84.4% (active)
CCC(C)(C(=O)NC1CCCCC1)N(C)C(=O)c1ccc2c(c1)OCO2 (stereo not given)	Nuclear receptor coactivator 2 (Homo sapiens) (UniProt Q15596)	inhibition	-11.6% (inactive)
O=C(CSc1nnc(-c2ccccc2)n1Cc1ccco1)Nc1ccccc1-c1ccccc1	Nuclear receptor coactivator 2 (Homo sapiens) (UniProt Q15596)	inhibition	-16.5% (inactive)
COc1c(C=O)c(CCN(C)C(=O)c2ccc(F)cc2)cc2c1OCO2	Nuclear receptor coactivator 2 (Homo sapiens) (UniProt Q15596)	inhibition	0.41% (inactive)
CN(C)S(=O)(=O)c1ccc(NC(=O)COC(=O)Cn2[nH]c(=O)c3ccccc3c2=O)cc1	Nuclear receptor coactivator 2 (Homo sapiens) (UniProt Q15596)	inhibition	10.7% (inactive)
Cc1ccsc1C(=O)OCC(=O)c1cc(C)n(CC2CCCO2)c1C (stereo not given)	Nuclear receptor coactivator 2 (Homo sapiens) (UniProt Q15596)	inhibition	73.2% (active)
COCCn1c(C)cc(C(=O)COC(=O)CNC(=O)c2ccco2)c1C	Nuclear receptor coactivator 2 (Homo sapiens) (UniProt Q15596)	inhibition	-9.66% (inactive)
